Entries and their inhibition at 0.3 µM
TARGET_OR_TEST_SYSTEM: Recombinant human JAK1 catalytic domain (Homo sapiens (Human), UniProt P23458)
Sequence (P23458 875-1153): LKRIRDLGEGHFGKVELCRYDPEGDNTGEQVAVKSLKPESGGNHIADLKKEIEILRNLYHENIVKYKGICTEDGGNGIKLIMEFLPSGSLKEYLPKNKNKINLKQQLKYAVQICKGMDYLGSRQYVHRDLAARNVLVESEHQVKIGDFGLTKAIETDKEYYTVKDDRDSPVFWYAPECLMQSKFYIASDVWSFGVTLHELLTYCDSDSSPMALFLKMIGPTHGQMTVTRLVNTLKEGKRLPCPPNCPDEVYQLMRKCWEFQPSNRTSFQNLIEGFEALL
METHOD_NOTES: JAK1 kinase assay (Z'-LYTE Tyr 6 Peptide)
Format: biochemical
SETTINGS: JAK1 kinase assay, 0.3 uM concentration; read-out: inhibition percentage (IR %)

- CN(c1ccc(NS(=O)(=O)Cc2cccc(Cl)c2)cn1)[C@@H]1CCN(c2ncnc3[nH]ccc23)C1: 50 to 100%
- C[C@H](NC(=O)c1ccc(N(C)[C@@H]2CCN(c3ncnc4[nH]ccc34)C2)c(F)c1)c1ccccc1: 50 to 100%
- CN(c1ncc(C#N)s1)[C@@H]1CCN(c2ncnc3[nH]ccc23)C1: 50 to 100%
- N#CCN(C1CCCC1)[C@@H]1CCN(c2ncnc3[nH]ccc23)C1: 50 to 100%
- CN(C(=O)Nc1ccc(C#N)c(F)c1)[C@@H]1CCN(c2ncnc3[nH]ccc23)C1: 50 to 100%
- CN(c1ccc(NS(=O)(=O)Cc2ccccc2F)cn1)[C@@H]1CCN(c2ncnc3[nH]ccc23)C1: 50 to 100%
- CN(c1ccc(-c2nn[nH]n2)cn1)[C@@H]1CCN(c2ncnc3[nH]ccc23)C1: 20 to 50%

Next item in the queue.
*Q* Write down inhibition at 0.3 µM measured for item CN(c1ccnc(Cl)n1)[C@@H]1CCN(c2ncnc3[nH]ccc23)C1
*A* 50 to 100%

====

Tested on: IL-3-induced STAT5 phosphorylation, TF-1 cells
METHOD_NOTES: IL-3-induced STAT5 phosphorylation in TF-1 cells
Type: cell-based, human
SETTINGS: Homo sapiens, IL-3 stimulation, read-out: pSTAT5 (IC50)
REPORTED_METRIC: IC50 (nM)

- CN(c1ncc(C#N)cn1)[C@@H]1CCN(c2ncnc3[nH]ccc23)C1: 3070
- CN(c1ccc(C(=O)N[C@@H]2c3ccccc3C[C@H]2O)cc1F)[C@@H]1CCN(c2ncnc3[nH]ccc23)C1: 693
- CN(c1ccc(C#N)c(F)c1)[C@@H]1CCN(c2ncnc3[nH]ccc23)C1: 1680

P: CNS(=O)(=O)N(C)[C@@H]1CCN(c2ncnc3[nH]ccc23)C1
Q: CN(c1ccc(S(N)(=O)=O)cn1)[C@@H]1CCN(c2ncnc3[nH]ccc23)C1
*Q* Lab note: record which item had the higher IC50, P or Q . Choose, then provide that item's label.
*A* P
(P: 1490 nM, Q: 857 nM)

====

TARGET_OR_TEST_SYSTEM: Recombinant human JAK1 catalytic domain (Homo sapiens (Human), UniProt P23458)
METHOD_NOTES: JAK1 kinase assay (Z'-LYTE Tyr 6 Peptide)
Type: biochemical
SETTINGS: JAK1 kinase assay, 0.3 uM concentration; read-out: inhibition percentage (IR %)
Entries and their inhibition at 0.3 µM

Take a look at these entries with their results.
• CN(C(=O)N[C@@H]1c2ccccc2C[C@H]1O)[C@@H]1CCN(c2ncnc3[nH]ccc23)C1 = 50 to 100%
• CN(C(=O)Nc1cccc(C#N)c1)[C@@H]1CCN(c2ncnc3[nH]ccc23)C1 = 50 to 100%
• CCN(c1c(F)cc(C#N)cc1F)[C@@H]1CCN(c2ncnc3[nH]ccc23)C1 = 50 to 100%
• COCC(=O)N(C)[C@@H]1CCN(c2ncnc3[nH]ccc23)C1 = 20 to 50%
• COc1ccc(NC(=O)c2ccc(N(C)[C@@H]3CCN(c4ncnc5[nH]ccc45)C3)nc2)cc1 = 50 to 100%

*Q* Write down inhibition at 0.3 µM measured for item CN(c1ccnc(C#N)c1)[C@@H]1CCN(c2ncnc3[nH]ccc23)C1
*A* 50 to 100%

*Q* Write down inhibition at 0.3 µM measured for item COc1cccc(NC(=O)c2ccc(N(C)[C@@H]3CCN(c4ncnc5[nH]ccc45)C3)nc2)c1
*A* 20 to 50%

*Q* Write down inhibition at 0.3 µM measured for item CN(c1ccc2nn[nH]c2n1)[C@@H]1CCN(c2ncnc3[nH]ccc23)C1
*A* 50 to 100%

*Q* Write down inhibition at 0.3 µM measured for item CN(c1ccc(NC(=O)c2cccc(F)c2)cn1)[C@@H]1CCN(c2ncnc3[nH]ccc23)C1
*A* 50 to 100%

*Q* Write down inhibition at 0.3 µM measured for item CN([C@@H]1CCN(c2ncnc3[nH]ccc23)C1)S(=O)(=O)c1cccc(C#N)c1
*A* 50 to 100%

*Q* Write down inhibition at 0.3 µM measured for item C[C@@H](NC(=O)c1ccc(N(C)[C@@H]2CCN(c3ncnc4[nH]ccc34)C2)nc1)c1ccccc1
*A* 50 to 100%

*Q* Write down inhibition at 0.3 µM measured for item CN(c1cc(F)cc(F)c1C#N)[C@@H]1CCN(c2ncnc3[nH]ccc23)C1
*A* 20 to 50%

*Q* Write down inhibition at 0.3 µM measured for item CN(c1ccc(C#N)c(Br)c1)[C@@H]1CCN(c2ncnc3[nH]ccc23)C1
*A* 50 to 100%

*Q* Write down inhibition at 0.3 µM measured for item CN([C@@H]1CCN(c2ncnc3[nH]ccc23)C1)S(=O)(=O)C1CC1
*A* 20 to 50%

*Q* Write down inhibition at 0.3 µM measured for item CNS(=O)(=O)N(C)[C@@H]1CCN(c2ncnc3[nH]ccc23)C1
*A* 50 to 100%

*Q* Write down inhibition at 0.3 µM measured for item CN(c1ccc(C(=O)Nc2ccccc2F)cn1)[C@@H]1CCN(c2ncnc3[nH]ccc23)C1
*A* 50 to 100%

*Q* Write down inhibition at 0.3 µM measured for item CN(C(=O)N1CCC[C@@H]1C#N)[C@@H]1CCN(c2ncnc3[nH]ccc23)C1
*A* 50 to 100%

*Q* Write down inhibition at 0.3 µM measured for item Cc1cc(Cl)nc(N(C)[C@@H]2CCN(c3ncnc4[nH]ccc34)C2)c1C#N
*A* 50 to 100%

*Q* Write down inhibition at 0.3 µM measured for item CCOc1cnc(N(C)[C@@H]2CCN(c3ncnc4[nH]ccc34)C2)cn1
*A* 50 to 100%

*Q* Write down inhibition at 0.3 µM measured for item CN(c1ccc(C#N)cc1[N+](=O)[O-])[C@@H]1CCN(c2ncnc3[nH]ccc23)C1
*A* 50 to 100%

*Q* Write down inhibition at 0.3 µM measured for item CC(C)S(=O)(=O)Nc1ccc(N(C)[C@@H]2CCN(c3ncnc4[nH]ccc34)C2)nc1
*A* 50 to 100%

*Q* Write down inhibition at 0.3 µM measured for item Cc1cc([N+](=O)[O-])cnc1N(C)[C@@H]1CCN(c2ncnc3[nH]ccc23)C1
*A* 20 to 50%

*Q* Write down inhibition at 0.3 µM measured for item COCC(=O)Nc1ccc(N(C)[C@@H]2CCN(c3ncnc4[nH]ccc34)C2)nc1
*A* 20 to 50%

// provenance: patent US10111875B2
